Origin of the recorded values: patent US8796245B2

The molecules below have reported MIC for S. aureus ATCC 29213 (SA101, MSSA).
OUTCOME MEASURE: MIC

In [3]: df
Out[3]:
                  compound_structure_string  observed_value
0  CN(C)[C@@H]1C(O)=C(C(N)=O)C(=O)[C@@]2(O)C(O)=C3C(=O)c4c(O)c(NC(=O)CNCC(F)(F)F)cc(F)c4C[C@H]3C[C@@H]12         1 µg/mL
1  CCCCCCCNCC(=O)Nc1cc(F)c2c(c1O)C(=O)C1=C(O)[C@]3(O)C(=O)C(C(N)=O)=C(O)[C@@H](N(C)C)[C@@H]3C[C@@H]1C2         4 µg/mL
2  COCCCNCC(=O)Nc1cc(F)c2c(c1O)C(=O)C1=C(O)[C@]3(O)C(=O)C(C(N)=O)=C(O)[C@@H](N(C)C)[C@@H]3C[C@@H]1C2         2 µg/mL
3  COC[C@@H]1CCCN1CC(=O)Nc1cc(F)c2c(c1O)C(=O)C1=C(O)[C@]3(O)C(=O)C(C(N)=O)=C(O)[C@@H](N(C)C)[C@@H]3C[C@@H]1C2         1 µg/mL
4  CN(C)[C@@H]1C(O)=C(C(N)=O)C(=O)[C@@]2(O)C(O)=C3C(=O)c4c(O)c(NC(=O)CN5Cc6ccccc6C5)cc(F)c4C[C@H]3C[C@@H]12      0.25 µg/mL

###

The compounds below have reported MIC for K. pneumoniae ATCC 13883 (KP109).

COMPOUND	STUDY TARGET	BOUND OPERATOR	MIC, µg/mL
CCCCNCC(=O)Nc1cc(F)c2c(c1O)C(=O)C1=C(O)[C@]3(O)C(=O)C(C(N)=O)=C(O)[C@@H](N(C)C)[C@@H]3C[C@@H]1C2 [Compound 13]	K. pneumoniae ATCC 13883 (KP109)	=	0.5
CN(CC(=O)Nc1cc(F)c2c(c1O)C(=O)C1=C(O)[C@]3(O)C(=O)C(C(N)=O)=C(O)[C@@H](N(C)C)[C@@H]3C[C@@H]1C2)C1CCCC1 [Compound 31]	K. pneumoniae ATCC 13883 (KP109)	=	4
CN(C)[C@@H]1C(O)=C(C(N)=O)C(=O)[C@@]2(O)C(O)=C3C(=O)c4c(O)c(NC(=O)CN5CCOCC5)cc(F)c4C[C@H]3C[C@@H]12 [Compound 44]	K. pneumoniae ATCC 13883 (KP109)	>	32
CN(C)[C@@H]1C(O)=C(C(N)=O)C(=O)[C@@]2(O)C(O)=C3C(=O)c4c(O)c(NC(=O)CNC5CCCC5)cc(F)c4C[C@H]3C[C@@H]12 [Compound 18]	K. pneumoniae ATCC 13883 (KP109)	=	0.5
CC(C)CNCC(=O)Nc1cc(F)c2c(c1O)C(=O)C1=C(O)[C@]3(O)C(=O)C(C(N)=O)=C(O)[C@@H](N(C)C)[C@@H]3C[C@@H]1C2 [Compound 19]	K. pneumoniae ATCC 13883 (KP109)	=	1
COC[C@@H]1CCCN1CC(=O)Nc1cc(F)c2c(c1O)C(=O)C1=C(O)[C@]3(O)C(=O)C(C(N)=O)=C(O)[C@@H](N(C)C)[C@@H]3C[C@@H]1C2 [Compound 41]	K. pneumoniae ATCC 13883 (KP109)	=	8
CN(C)[C@H]1CCN(CC(=O)Nc2cc(F)c3c(c2O)C(=O)C2=C(O)[C@]4(O)C(=O)C(C(N)=O)=C(O)[C@@H](N(C)C)[C@@H]4C[C@@H]2C3)C1 [Compound 38]	K. pneumoniae ATCC 13883 (KP109)	>	32
CN(C)[C@@H]1C(O)=C(C(N)=O)C(=O)[C@@]2(O)C(O)=C3C(=O)c4c(O)c(NC(=O)CN5CC[C@H](F)C5)cc(F)c4C[C@H]3C[C@@H]12 [Compound 36]	K. pneumoniae ATCC 13883 (KP109)	=	4
CN(C)[C@@H]1C(O)=C(C(N)=O)C(=O)[C@@]2(O)C(O)=C3C(=O)c4c(O)c(NC(=O)CNC5CC5)cc(F)c4C[C@H]3C[C@@H]12 [Compound 17]	K. pneumoniae ATCC 13883 (KP109)	=	4
CCCCCCCNCC(=O)Nc1cc(F)c2c(c1O)C(=O)C1=C(O)[C@]3(O)C(=O)C(C(N)=O)=C(O)[C@@H](N(C)C)[C@@H]3C[C@@H]1C2 [Compound 29]	K. pneumoniae ATCC 13883 (KP109)	=	8
CCN(CC)CC(=O)Nc1cc(F)c2c(c1O)C(=O)C1=C(O)[C@]3(O)C(=O)C(C(N)=O)=C(O)[C@@H](N(C)C)[C@@H]3C[C@@H]1C2 [Compound 25]	K. pneumoniae ATCC 13883 (KP109)	=	2
